# System: A498 renal
# Test description: NCI tumour cell line growth inhibition, 48 h
The entries below are paired with their reported TGI.

Field: example entries. Status: answers known.
INSERT INTO measurements (compound, attribute_measured, value_measured) VALUES
  ('COc1ccccc1OCC(=O)Nc1sc2c(c1C(N)=O)CCC2', 'TGI', '> 100 µM'),
  ('CC1=NN(c2ccccc2)C(=O)C1N=Nc1ccc([As](=O)(O)O)c(O)c1 (configuration not stated)', 'TGI', '> 100 µM'),
  ('CCOc1ccc(N=NC2C(=O)N(C(=O)CC(=O)Nc3ccccc3OC)N=C2C)cc1 (configuration not stated)', 'TGI', '> 31.6 µM'),
  ('Cn1ccnc1C(=O)/C=C/c1ccc(C(=O)Nc2ccc(Cl)cc2)cc1', 'TGI', '> 33.3 µM'),
  ('Cc1cc(NC(=S)Nc2ccccc2)c(NC(=S)Nc2ccccc2)cc1C', 'TGI', '98.3 µM'),
  ('CC(C)(C)NC(C1=CC(C)(C)c2ccccc2C1=O)c1ccccc1 (configuration not stated)', 'TGI', '6.37 µM'),
  ('CC(C)(C)OC(=O)N(O)[C@@H]1C=C[C@H](n2cnc3c(N)ncnc32)C1', 'TGI', '> 100 µM'),
  ('O=C1CC(c2ccc(N3CCOCC3)cc2)(c2ccsc2)NC(=O)C1Sc1ccccc1Cl (configuration not stated)', 'TGI', '> 100 µM'),
  ('CC1=NN(C(=O)CC(=O)Nc2ccccc2C)C(=O)C1N=Nc1ccc(C(=O)O)cc1 (configuration not stated)', 'TGI', '> 100 µM'),
  ('Cc1cc(C)nc(NS(=O)(=O)c2ccc(Nc3nncc(=O)n3N)cc2)n1', 'TGI', '> 100 µM');

Next up:
Looking for the measured TGI of CCN1CCC(O)(c2ccc(C)cc2)C(C(=O)c2ccc(C)cc2)C1 (configuration not stated) , can you help?
> 100 µM

###

# Tested on: MALME-3M melanoma
# Test description: NCI tumour cell line growth inhibition, 48 h
Attribute measured: GI50

Field: example entries. Status: answers known.
INSERT INTO assay_data (molecule, assayed_system, attribute_measured, value_measured) VALUES
  ('c1ccc(Cn2cc3c(c2-c2ccccc2)CCc2cnoc2-3)cc1', 'MALME-3M melanoma', 'GI50', '3130 nM'),
  ('CC(=O)[CH-]C(=O)c1ccccc1.CC(=O)[CH-]C(=O)c1ccccc1.CC[O-].CC[O-].[Zr+4]', 'MALME-3M melanoma', 'GI50', '> 100000 nM'),
  ('CC[C@@H](C(=O)[C@@H](C)[C@@H](O)[C@H](C)[C@@H]1O[C@@H]([C@@H](CC)C(=O)O)CC[C@@H]1C)C1O[C@]2(C=CC(=O)[C@]3(CC[C@@](C)([C@H]4CC[C@](O)(CC)[C@H](C)O4)O3)O2)[C@H](C)C[C@@H]1C (some centres not stated)', 'MALME-3M melanoma', 'GI50', '163 nM'),
  ('Cn1cncc1[C@@](N)(c1ccc(Cl)cc1)c1ccc2c(c1)c(-c1cccc(Cl)c1)cc(=O)n2C', 'MALME-3M melanoma', 'GI50', '901 nM'),
  ('C=C1C(=O)O[C@H]2[C@H]1CC/C(COC(=O)CCCCC(=O)OC/C1=C/CC[C@@]3(C)O[C@H]3[C@H]3OC(=O)C(=C)[C@@H]3CC1)=C\CC[C@@]1(C)O[C@@H]21', 'MALME-3M melanoma', 'GI50', '2100 nM'),
  ('Cc1nn(-c2nc3ccccc3s2)c(C)c1Oc1ccccc1O', 'MALME-3M melanoma', 'GI50', '12600 nM');

Next up:
Please provide the recorded GI50 for CC(C)(C)NC(C1=CC(C)(C)c2ccccc2C1=O)c1ccccc1 (configuration not stated) , tested on MALME-3M melanoma.
1340 nM
